These data points were gathered from patent US20170022269A1.

Target: T1, Aβ(1-40) monomer (human)
T1 construct: also called monomeric Aβ(1-40); Aβ(1-40) monomer, 0.1% NH4OH
T1 sequence (peptide, as listed by the source): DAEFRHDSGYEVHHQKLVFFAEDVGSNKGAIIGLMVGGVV
Assay: dot blot on nitrocellulose
Metric name: binding result

[[record]]
binder = "monoclonal antibody 5F7 (antibody, V domains shown, Mouse monoclonal antibody from hybridoma, Protein A purified; also called mAb 5F7; ML15-5F7.5B10) VH: QVQLKQSGAELVRPGTSVKMSCKASGYTFTTFYIHWVKQRPGQGLEWIGMIGPGSGNTYYNEMFKDKATLTVDTSSSTAYMQLSSLTSEDSAVYFCARAKSARAAWFAYWGQGTLVTVSA VL: DVLMTQTPLSLPVSLGDQASISCRSSQSVVQSNGNTYLEWYLQKPGQSPKLLIYKVSNRFSGVPDRFSGSGSGTDFTLKISRVEAEDLGVYYCFQGSHVPPTFGGGTKLEIKR"
endpoint_value = "no binding"

[[record]]
binder = "monoclonal antibody 7C6 (antibody, V domains shown, Mouse monoclonal antibody from hybridoma; also called ML13-7C6.1D4.4A9.5G8; hybridoma ATCC PTA-7240) VH: EVKLVESGGGLVKPGGSLKLSCAASGFTFSSYAMSWVRQTPAKRLEWVASIHNRGTIFYLDSVKGRFTISRDNVRNTLYLQMSSLRSEDTAIYYCTRGRSNSYAMDYWGQGTSVTVSS VL: DVLVTQSPLSLPVRLGDQASISCRSTQTLVHRNGDTYLEWYLQKPGQSPKSLIYKVSNRFSGVPDRFSGSGSGTDFTLKISRVEAEDLGVYYCFQGSHVPYTFGGGTKLEIKR"
endpoint_value = "no binding"

[[record]]
binder = "monoclonal antibody 2F2 (antibody, V domains shown, Mouse monoclonal antibody from hybridoma; also called ML15-2F2.3E12; hybridoma ATCC PTA-7408) VH: QVQLKQSGAELVRPGTSVKMSCKASGYTFTTFYIHWVKQRPGQGLEWIGMIGPGSGNTYYNEMFKDKATLTVDTSSSTAYMQLSSLTSEDSAVYFCARAKSARAAWFAYWGQGTLVTVSA VL: DVLMTQTPLSLPVSLGDQASISCRSSQSVVQSNGNTYLEWYLQKPGQSPKLLIYKVSNRFSGVPDRFSGSGSGTDFTLKISRVEAEDLGVYYCFQGSHVPPTFGGGTKLEIKR"
endpoint_value = "no binding"

[[record]]
binder = "monoclonal antibody 10C1 (antibody, V domains shown, Mouse monoclonal antibody from hybridoma; also called ML15-10C1.5C6.3H4; hybridoma ATCC PTA-7810) VH: EVKLVESGGGLVQPGGSRKLSCAASGFTFSDYEMVWVRQAPGKGLEWVAYINSGSGTIHYADTVKGRFTISRDNPKNTLFLQMSSLRSEDTAMYYCARTLLRLHFDYWGQGTILTVSS VL: DIVMSQSPSSLAVSVGEKVTMSCKSSQSLFYSRNQKNFLAWYQQKPGQSPKLLIYWASTGESGVPDRFTGSGSGTDFTLTISSVKAEDLAVYYCQQYFSYPWTFGGGTKLEIKR"
endpoint_value = "no binding"

[[record]]
binder = "monoclonal antibody 4B7 (antibody, V domains shown, Mouse monoclonal antibody from hybridoma; also called ML15-4B7.3A6; hybridoma ATCC PTA-7242) VH: EVKLVESGGGLVQPGGSRKLSCAASGFTFSDYEMVWVRQAPGEGLEWVAYISSGSRTIHYADTVKGRFTISRDNPKNTLFLQMSSLRSEDTAMYYCARTLLRLHFDYWGQGTILTVSS VL: DIVMSQSPSSLAVSVGEKVTMSCRSSQSLFYRSNQKNFLAWYQQKPGQSPKLLIYWASTRESGVPDRFTGSGSGTDFTLTISSVKAEDLAVYYCQQYYSYPWTFGGGTKLEIKR"
endpoint_value = "no binding"

[[record]]
binder = "monoclonal antibody 7E5 (antibody, V domains shown, Mouse monoclonal antibody from hybridoma; also called ML15-7E5.5E12; hybridoma ATCC PTA-7809) VH: EVKLVESGGGLVQPGGSRKLSCAASGFTFSDYEMVWVRQAPGEGLEWVAYISSGSRTIHYADTVKGRFTISRDNPKNTLFLQMSSLRSEDTAMYYCARTLLRLHFDYWGQGTILTVSS VL: DIVMSQSPSSLAVSVGEKVTMSCRSSQSLFYRSNQKNFLAWYQQKPGQSPKLLIYWASTRESGVPDRFTGSGSGTDFTLTISSVKAEDLAVYYCQQYYSYPWTFGGGTKLEIKR"
endpoint_value = "no binding"

